// provenance: patent US20210380702A1

Kindly state Kd for each of the entries shown.
system: T1, Human PD-L1 Dimer (human, UniProt Q9NZQ7 19-239)
T1 construct: also called hPD-L1 dimer; hPD-L1-hFc
T1 sequence (Q9NZQ7 19-239): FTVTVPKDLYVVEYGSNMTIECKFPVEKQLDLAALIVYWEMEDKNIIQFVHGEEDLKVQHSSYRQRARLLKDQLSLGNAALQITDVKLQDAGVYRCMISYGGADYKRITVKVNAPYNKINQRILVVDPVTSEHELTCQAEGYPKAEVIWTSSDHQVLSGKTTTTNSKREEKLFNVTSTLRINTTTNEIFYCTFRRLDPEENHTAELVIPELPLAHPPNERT
procedureSummary: SPR (Biacore), mAb captured, 37C

Need Kd, item H2aM8314N (antibody, mouse IgG2, V domains shown, also called H2M8314N) VH: EVQLVESGGGVVRPGGSLRLSCAASGFTFDDYGMTWVRQAPGRGLEWVSGIHWHGKRTGYADSVKGRFTISRDNAKKSLYLQMNSLKGEDTALYHCVRGGMSTGDWFDPWGQGTLVIVSS VL: DIQMTQSPSSLSASLGDRVTITCRASQSINSYLNWYQQKPGKAPKLLIYVASSLQSGVPSRFSGSGSGTEFTLTISNLQPEDFATYYCQQSYSTPPITFGQGTRLEIK
0.00591 nM

Find the recorded Kd belonging to H2aM8321N (antibody, mouse IgG2, V domains shown, also called H2M8321N) VH: EERLVESGGDLVQPGGSLRLSCAASGITVGTNYMNWVRQAPGKGLEWVSVISSGGNTHYADSVKGRFIMSRQTSKNTLYLQMNSLETEDTAVYYCARGIRGLDVWGQGTMVTVSS VL: DIQMTQSPSSLSASVGDRVTITCRASQSMSSYLNWYQQKPGRAPKLLIFAASSLQSGVPSRFSGSGSGTDFTLTISSLQPEDFATYYCQQSYSTPPITFGQGTRLEIK and report it.
0.285 nM

Param item = H1H9329P (antibody, human IgG1, V domains shown) VH: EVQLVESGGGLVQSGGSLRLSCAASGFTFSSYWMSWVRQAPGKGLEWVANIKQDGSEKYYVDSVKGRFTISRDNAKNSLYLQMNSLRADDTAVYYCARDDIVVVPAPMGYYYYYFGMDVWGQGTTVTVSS VL: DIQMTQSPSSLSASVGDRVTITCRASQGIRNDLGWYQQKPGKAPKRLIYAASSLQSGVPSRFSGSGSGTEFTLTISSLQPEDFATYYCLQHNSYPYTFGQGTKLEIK ; retrieve measured Kd.
0.689 nM

GET /values?readout=Kd&item= H2aM8323N (antibody, mouse IgG2, V domains shown, also called H2M8323N) VH: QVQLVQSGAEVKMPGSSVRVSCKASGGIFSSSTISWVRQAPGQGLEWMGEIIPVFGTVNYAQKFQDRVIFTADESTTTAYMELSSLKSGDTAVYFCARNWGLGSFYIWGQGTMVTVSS VL: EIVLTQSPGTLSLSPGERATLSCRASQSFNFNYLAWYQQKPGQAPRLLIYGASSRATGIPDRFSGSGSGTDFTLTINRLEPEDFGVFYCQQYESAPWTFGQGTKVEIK
0.028 nM
